System: HB3
Test: qHTS profiling for inhibitors of Plasmodium falciparum proliferation (AID 504749); also: nearly all actives have a fitted effect of over 60% in size
Settings: P. falciparum in erythrocytes, SYBR Green DNA, 72 h; series mostly up to 28.7 µM
Description: NIH National Institute of Allergy and Infectious Diseases [NIAID] NIH Chemical Genomics Center [NCGC] […] Because mature erythrocytes lack DNA, only Plasmodium-derived DNA is detected. NCGC Assay Protocol Summary: The SYBR Green viability assay was adapted from a method described previously (Plouffe et al., 2008). […] The following morning, fluorescence intensity at 485(14) nm excitation and 535(25) nm emission wavelengths was measured on an EnVision (Perkin Elmer) plate reader. […]
Records with an inconclusive call do not appear. Activity calls are given as the source filed them. Calls follow the shape of the dose curve; as a rule, active = well fitted inhibition curve with a large enough effect; inconclusive = small, poorly fitted or top-dose-only effect; inactive = flat fitted curve, though single readings scatter.
Your answer must be one of the following: active, inactive

Known results for compounds:
stdin: Hi, do you know how C[N+](C)(C)CC[N+]1(C)Cc2c(Cl)c(Cl)c(Cl)c(Cl)c2C1 came out in this test?
stdout: inactive

stdin: Hi, do you know how Cc1cc(NC(=O)C2=C(O)c3ccccc3S(=O)(=O)N2C)no1 came out in this test?
stdout: inactive

stdin: Hi, do you know how NC(=O)CC[C@@H](N)C(=O)O came out in this test?
stdout: inactive

stdin: Hi, do you know how CC(=O)N[C@@H](Cc1ccc(O)cc1)C(=O)O came out in this test?
stdout: inactive

stdin: Hi, do you know how CCCCOC(=O)c1ccc(N)cc1 came out in this test?
stdout: inactive

stdin: Hi, do you know how NCc1ccc(S(N)(=O)=O)cc1 came out in this test?
stdout: active

stdin: Hi, do you know how O=C(O)CCCc1ccccc1 came out in this test?
stdout: inactive

stdin: Hi, do you know how O=C1CC[C@@H](C(=O)O)N1 came out in this test?
stdout: inactive

stdin: Hi, do you know how CN/C(=C\[N+](=O)[O-])NCCSCc1csc(CN(C)C)n1 came out in this test?
stdout: inactive

stdin: Hi, do you know how CC[N+](CC)(CC(=O)Nc1c(C)cccc1C)Cc1ccccc1 came out in this test?
stdout: inactive

***
stdin: Hi, do you know how NC(N)=NS(=O)(=O)c1ccc(N)cc1 came out in this test?
stdout: inactive

stdin: Hi, do you know how C[C@H]1COc2c(C3(N)CC3)c(F)cc3c(=O)c(C(=O)O)cn1c23 came out in this test?
stdout: inactive

stdin: Hi, do you know how Cc1ccc(C(C)C)c(O)c1 came out in this test?
stdout: inactive

stdin: Hi, do you know how O=c1[nH]c2cc(C(F)(F)F)c(N3CCOCC3)cc2n(CP(=O)(O)O)c1=O came out in this test?
stdout: inactive

stdin: Hi, do you know how CCOC(=O)c1cccnc1 came out in this test?
stdout: inactive

stdin: Hi, do you know how CCCCCCCC(=O)OCC(O)CO (configuration not stated) came out in this test?
stdout: inactive

Source listed as PubChem BioAssay (NCATS).
